Some binders, each annotated with its measured Mean % WT Binding.
assayed-target: human CD33 K315A (human, UniProt P20138 18-364)
Sequence (P20138 18-364 K315A limits assumed): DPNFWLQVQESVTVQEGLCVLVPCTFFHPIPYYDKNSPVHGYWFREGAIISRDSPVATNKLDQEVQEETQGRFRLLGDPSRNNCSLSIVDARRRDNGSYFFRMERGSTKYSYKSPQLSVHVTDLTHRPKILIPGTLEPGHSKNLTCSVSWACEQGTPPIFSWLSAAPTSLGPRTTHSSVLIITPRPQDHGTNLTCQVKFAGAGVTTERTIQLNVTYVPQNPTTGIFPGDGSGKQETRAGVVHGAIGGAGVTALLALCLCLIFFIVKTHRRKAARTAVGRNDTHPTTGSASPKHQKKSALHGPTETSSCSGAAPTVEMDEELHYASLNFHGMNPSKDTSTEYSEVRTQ
test-summary: alanine scan, flow cytometry, HEK293-T;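 further: antibody binding to each alanine-substituted CD33 mutant expressed transiently in HEK293-T, read as fluorescence minus background, mean of duplicates, relative to wild-type CD33 set as 100%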

Completed entries (count: 3):
binder	recorded-value
Refmab #1 (antibody, V domains shown, The alanine scan used IgG or Fab; also called hP67.6) VH: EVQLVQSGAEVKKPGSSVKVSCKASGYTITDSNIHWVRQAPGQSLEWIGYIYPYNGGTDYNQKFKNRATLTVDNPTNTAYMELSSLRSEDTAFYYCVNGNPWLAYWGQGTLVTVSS VL: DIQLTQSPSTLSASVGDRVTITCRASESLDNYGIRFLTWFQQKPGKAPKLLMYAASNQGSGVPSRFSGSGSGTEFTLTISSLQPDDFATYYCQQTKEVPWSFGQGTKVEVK	80.6 % WT binding
Refmab #2 (antibody, V domains shown, The alanine scan used IgG or Fab) VH: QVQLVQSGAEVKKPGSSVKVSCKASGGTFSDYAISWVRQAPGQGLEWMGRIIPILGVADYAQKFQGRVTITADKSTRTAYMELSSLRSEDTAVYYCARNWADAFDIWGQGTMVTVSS VL: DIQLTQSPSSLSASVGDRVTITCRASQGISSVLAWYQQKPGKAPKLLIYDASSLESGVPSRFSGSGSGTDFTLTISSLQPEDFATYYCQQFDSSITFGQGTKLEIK	111 % WT binding
Refmab #3 (antibody, V domains shown, The alanine scan used IgG or Fab) VH: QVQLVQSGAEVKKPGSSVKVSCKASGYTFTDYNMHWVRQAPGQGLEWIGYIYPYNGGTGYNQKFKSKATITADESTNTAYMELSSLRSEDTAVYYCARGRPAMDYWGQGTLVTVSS VL: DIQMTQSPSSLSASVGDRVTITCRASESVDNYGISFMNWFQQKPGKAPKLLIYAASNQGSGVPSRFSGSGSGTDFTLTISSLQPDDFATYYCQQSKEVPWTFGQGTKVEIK	136 % WT binding

Let us examine a further case.
The recorded Mean % WT Binding for entry Refmab #4 (antibody, V domains shown, The alanine scan used IgG or Fab) VH: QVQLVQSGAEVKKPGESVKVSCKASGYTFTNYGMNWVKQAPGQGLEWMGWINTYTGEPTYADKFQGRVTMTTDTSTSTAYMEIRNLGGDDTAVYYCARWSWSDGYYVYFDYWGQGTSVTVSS VL: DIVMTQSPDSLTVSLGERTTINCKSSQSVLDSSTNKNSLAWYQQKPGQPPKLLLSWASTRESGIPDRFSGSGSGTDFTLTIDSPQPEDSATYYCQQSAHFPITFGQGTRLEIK equals 48.4 % WT binding

Values were extracted from patent US20260242735A1.
